Data credit: PubChem BioAssay

Below, each entry is listed alongside its reported composite z-score.
Target: Alpha-bungarotoxin (Bungarus multicinctus)
Experiment: alpha-bungarotoxin binders on microarray, profiling panel, artefact control for SMM control protein annotation, biochemical, small-molecule microarray, Alexa647 label, 635/667 nm fluorescence (AID 1117)
Details: alpha-BTX-A647 binding fluorescence, higher = more signal

[
  {
    "compound": "[N-]=[N+]=NCc1ccccc1C[C@]1(C(N)=O)N=C(c2ccc(OCCCO)cc2)O[C@H]1c1ccccc1CN=[N+]=[N-]",
    "composite z-score": 1.56
  },
  {
    "compound": "CC(=O)NCCCC[C@@H]1NC(=O)[C@@H]2C[C@H](C(=O)NCCCCCNC(=O)CS)[C@H](c3ccc(O)cc3)N2C1=O",
    "composite z-score": -0.46
  },
  {
    "compound": "CO[C@H]1COC(=O)[C@H](C)COC(=O)[C@H](Cc2ccccc2)NC(=O)CC=C[C@H]1C",
    "composite z-score": -0.948
  },
  {
    "compound": "Cc1ccc(S(=O)(=O)c2cc3oc2CC[C@@H](CO)NC(=O)N(C)Cc2cn(nn2)C[C@H](Cc2ccccc2)NC3=O)cc1",
    "composite z-score": 0.513
  },
  {
    "compound": "C=C(CCCC)/C(=C/C[C@@H](OC(=O)c1ccncc1)c1cccc(OCCO)c1)c1cc(C(=O)OC)ccc1OC",
    "composite z-score": 1.21
  },
  {
    "compound": "O=C1O[C@H](c2ccccc2)[C@H](c2ccccc2)N2[C@H]1[C@@H](C(=O)NC[C@H](O)c1ccccc1)[C@]1(C(=O)Nc3ccc(C#CC4(O)CCCCCC4)cc31)[C@H]2c1ccc(OCCO)cc1",
    "composite z-score": 1.41
  },
  {
    "compound": "CCOC(=O)C1=CCC(c2cccc3ccccc23)N(S(=O)(=O)c2ccc(C)cc2)C1 (centres undefined)",
    "composite z-score": 1.3
  },
  {
    "compound": "CO[C@H]1O[C@H](CO)[C@@H](OC(=O)Nc2ccccc2)[C@H](OC(=O)Nc2ccc3c(c2)OCO3)[C@@H]1OC(=O)Nc1ccc2c(c1)OCO2",
    "composite z-score": 0.361
  },
  {
    "compound": "CCN1C(C)=C(C(=O)OC)[C@@H](c2ccccc2)N2C(=O)[C@@]3(C(=O)OC)O[C@@]12[C@@H]1C(=O)N(c2ccccc2)C(=O)[C@@H]13",
    "composite z-score": 0.38
  },
  {
    "compound": "C=CCC1=C[C@H]2[C@H]([C@@H]3C=C[C@]2(CC=C)C(=O)[C@]32CO2)[C@@]2(CO2)C1=O",
    "composite z-score": 0.345
  },
  {
    "compound": "C[C@H]1COC(=O)[C@@H]2CCCN2C(=O)[C@@H](C)COC(=O)[C@@H]2CCCN2C1=O",
    "composite z-score": -0.394
  },
  {
    "compound": "NC(=O)NCC#Cc1ccc2c(c1)[C@]1(C(=O)N2)[C@H](C(N)=O)[C@H]2C(=O)O[C@H](c3ccccc3)[C@H](c3ccccc3)N2[C@@H]1c1ccccc1OCCO",
    "composite z-score": 0.45
  },
  {
    "compound": "COc1ccc([Si](C)(C)[C@H]2[C@H](CCO)O[C@@]3(C(=O)N(Cc4ccc(N5CCCCC5=O)cc4)c4ccccc43)[C@@H]2C)cc1",
    "composite z-score": 1.7
  },
  {
    "compound": "CO[C@H]1COC(=O)[C@@H](C)COC(=O)[C@H](Cc2ccccc2)NC(=O)CC=C[C@H]1C",
    "composite z-score": 0.0209
  },
  {
    "compound": "CO[C@H]1COC(=O)CC=C[C@H](C)[C@@H](OC)COC(=O)[C@H](Cc2ccccc2)NC(=O)CC=C[C@@H]1C",
    "composite z-score": -1.24
  },
  {
    "compound": "C=CCNC(=O)[C@H]1[C@@H]2C(=O)O[C@@H](c3ccccc3)[C@@H](c3ccccc3)N2[C@@H](c2ccc(O)cc2)[C@]12C(=O)Nc1ccc(C#CCNC(N)=O)cc12",
    "composite z-score": 0.543
  },
  {
    "compound": "CO[C@H]1COC(=O)[C@H](C)NC(=O)CC=C[C@@H](C)[C@H](NS(=O)(=O)c2ccc(C)cc2)COC(=O)[C@@H](OCc2ccccc2)C=C[C@@H]1C",
    "composite z-score": -0.606
  },
  {
    "compound": "COC(=O)[C@@]1(Cc2ccccc2CN=[N+]=[N-])N=C(c2ccc(OCCCO)cc2)O[C@H]1c1ccccc1N=[N+]=[N-]",
    "composite z-score": 0.45
  },
  {
    "compound": "CO[C@H]1COC(=O)CC=C[C@H](C)COC(=O)[C@@H](OCc2ccccc2)C=C[C@@H]1C",
    "composite z-score": -0.74
  }
]

----------
Below, each entry is listed alongside its reported z-score.
Experiment: basal S. cerevisiae growth modulation, no modifier, primary screen, OD600, strain BY4716, 24 h, basal condition (AID 1173)
Settings: OD600, 24 h, higher = more signal, called active from +8 up or from −8 down
reported-property: z-score

[
  {
    "molecule": "CCCN1C(=O)[C@@]2(CCS(=O)(=O)c3ccccc3)N=C(c3ccc(OCCCO)cc3)O[C@H]2c2ccccc21",
    "reported-value": 1.27
  },
  {
    "molecule": "C=C[C@H](OC)[C@@H](OC(=O)Nc1ccc(SC)cc1)c1ccc(OC)c(O)c1",
    "reported-value": -1.14
  },
  {
    "molecule": "CCN1C(C)=C(C(=O)OC)[C@@H](c2ccccc2)N2C(=O)[C@](O)(C(=O)OC)[C@@H](c3ccccc3)C(C(C)=O)=C12",
    "reported-value": -2.6
  },
  {
    "molecule": "CC1=C([C@H](O)CCc2ccccc2)[C@H](CO)[C@@H]2C(=O)N(Cc3ccccc3)C(=O)[C@@H]2C1",
    "reported-value": -3.02
  },
  {
    "molecule": "C=CCC(OC(C)=O)[C@@H]1[C@@H](N(Cc2ccc(-c3ccccc3)cc2)C(=O)c2ccc(C)cc2)c2cc(OCCCO)ccc2N1C(=O)c1ccc(-c2ccccc2)cc1 (some centres not stated)",
    "reported-value": -1.71
  },
  {
    "molecule": "NC(=O)NCC#Cc1ccc2c(c1)[C@]1(C(=O)N2)[C@H](c2ccccc2OCCO)N2[C@H](c3ccccc3)[C@H](c3ccccc3)OC(=O)[C@H]2[C@@H]1C(=O)N1CCN(c2ncccn2)CC1",
    "reported-value": 0.887
  },
  {
    "molecule": "COc1ccc(C(O)C2C=CC3C(=O)N(C)C(=O)C3N2N2CCCCC2)cc1OCc1ccccc1 (configuration not stated)",
    "reported-value": -1.21
  }
]

----------
Assay: basal RPMI8226 viability, no added stimulus, profiling panel, cell-based, calcein-AM fluorescence, 48 h, PK04 Diversity Set (AID 1166);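 note: cells grown under basal conditions without added stimulus; test concentration not given here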
Details: RPMI8226 myeloma viability, higher = more signal
Below, each entry is listed alongside its reported z-score.

[
  {
    "compound": "C#CCCCON=C1C[C@@H](O)[C@@H](O)[C@@H]2[C@@H]3C(=O)N(Cc4ccc5c(c4)OCO5)C(=O)[C@@H]3CC[C@H]12",
    "z-score": 0.0196
  },
  {
    "compound": "CCCNC(=O)[C@@H]1c2ccccc2C(=O)N(Cc2cc(F)cc(C(F)(F)F)c2)[C@H]1c1ccc(CO)cc1",
    "z-score": 0.563
  },
  {
    "compound": "O=C(CS)NCCCCCNC(=O)[C@H]1C[C@H]2C(=O)N[C@@H](Cc3ccccc3)C(=O)N2[C@H]1c1ccc(O)cc1",
    "z-score": 0.575
  },
  {
    "compound": "O=C1C2C=CC(C(O)C#Cc3ccccc3)N(Nc3ccccc3)C2C(=O)N1c1ccccc1 (configuration not stated)",
    "z-score": -0.619
  },
  {
    "compound": "C=CCc1cccc([C@H]2N[C@H](C(=O)O)CC[C@@H]2C)c1",
    "z-score": 0.665
  },
  {
    "compound": "O=C1C2C=CC(C(O)Cc3ccccc3)N(Nc3ccc([N+](=O)[O-])cc3)C2C(=O)N1c1ccccc1 (configuration not stated)",
    "z-score": -0.0631
  },
  {
    "compound": "O=C1O[C@H](c2ccccc2)[C@H](c2ccccc2)N2[C@H]1[C@@H](C(=O)NC[C@H](O)c1ccccc1)[C@]1(C(=O)Nc3ccc(C#CC4=CCCCC4)cc31)[C@H]2c1ccc(OCCO)cc1",
    "z-score": -2.29
  }
]
